Tested on: RNAi-treated eri-1 (mg366) nematodes
Experiment: RNAi screening of olfactory receptor genes: chemotaxis assay of RNAi-treated nematodes to odorants
Type: in vivo, Caenorhabditis elegans
Conditions: Control nematodes; low concentration of attractant
Measurement kind: chemotaxis index
// keep it numeric: no unit symbol after the value

As a guide, the following entries are already answered.
Structure notation	Experimental system	Measurement kind	Obs value
Cc1nc(C)c(C)s1	RNAi-treated eri-1 (mg366) nematodes	chemotaxis index	0.64
CCC(=O)C(C)=O	RNAi-treated eri-1 (mg366) nematodes	chemotaxis index	0.49
CCC(C)=O	RNAi-treated eri-1 (mg366) nematodes	chemotaxis index	0.65

Next item in the queue.
So, `c1cnccn1` ? Its chemotaxis index was 0.49
